# System: Botrytis cinerea
# method-notes: Direct protectant activity against broad bean grey mould (BCB)
# Type: in vivo
# test-conditions: direct protectant foliar spray, 600 ppm, 4 days
disease control rating BCB by entry:

molecule: CCN(C1COC2(CCC(C(C)(C)C)CC2)C1)C1CC2CCC1C2 (stereo not drawn)
readout-type: disease control rating BCB
data-value: 0 (less than 50% disease control)
--
molecule: CC(C)(C)C1CCC2(CC1)CC(CNC1CCCCC1)CO2 (stereo not drawn) [Compound 182]
readout-type: disease control rating BCB
data-value: 1 (about 50-80% disease control)
--
molecule: CCCN(CCC1CCCCC1)C1COC2(CCC(C(C)(C)C)CC2)C1 (stereo not drawn)
readout-type: disease control rating BCB
data-value: 0 (less than 50% disease control)
--
molecule: CCC(C)(C)C1CCC2(CC1)CC(N1CC(C)OC(C)C1)CO2 (stereo not drawn)
readout-type: disease control rating BCB
data-value: 1 (about 50-80% disease control)

[Q] Quick check: disease control rating BCB of CCCN(CCC)C1COC2(CCC(C(C)(C)C)CC2)C1 (stereo not drawn) ?
[A] 0 (less than 50% disease control)

[Q] Okay, and CN(CC(C)(C)C)C1COC2(CCC(C(C)(C)C)CC2)C1 (stereo not drawn) ?
[A] 0 (less than 50% disease control)
